Hey, just so you know, these numbers are from ChEMBL document CHEMBL2034905.

# Test Name: Lipophilicity, log P of the compound
# Format: physicochemical
# Experimental Context: octanol/water
Readout Label: logP
Lab note: jot the number down without any unit.

q: Using the record for `COc1ccc(NC(=O)CSc2nnc(Cn3cnc4ccccc43)o2)cc1` , state its measured logP.
a: 2.37

q: Look up and state reported logP for `CC(=O)Nc1ccc2nc(NC(=O)CSc3nnc(Cn4cnc5ccccc54)o3)sc2c1`
a: 2.6

q: Supply measured logP of `Cc1ccc(NC(=O)CSc2nnc(Cn3cnc4ccccc43)o2)cc1` in your reply.
a: 2.98

q: Give recorded logP. `N#Cc1ccc2nc(NC(=O)CSc3nnc(Cn4cnc5ccccc54)o3)sc2c1`
a: 3.72

q: Identify measured logP associated with `O=C(CSc1nnc(Cn2cnc3ccccc32)o1)Nc1nc2ccc(Br)cc2s1`
a: 4.52

q: Could you please provide reported logP for `CCOc1ccc2nc(NC(=O)CSc3nnc(Cn4cnc5ccccc54)o3)sc2c1` ? Thanks!
a: 3.9

q: Fill in logP for record `O=C(CSc1nnc(Cn2cnc3ccccc32)o1)Nc1nc2ccc(Cl)cc2s1`
a: 4.25

q: Give the reported logP for this compound. `O=C(CSc1nnc(Cn2cnc3ccccc32)o1)Nc1nc2ccc(F)cc2s1`
a: 3.85

q: Identify the reported logP for the following entry. `O=C(CSc1nnc(Cn2cnc3ccccc32)o1)Nc1nc2ccc(I)cc2s1`
a: 5.05

q: Supply recorded logP for `COc1ccc2nc(NC(=O)CSc3nnc(Cn4cnc5ccccc54)o3)sc2c1` here.
a: 3.56

q: Query logP for `O=C(CSc1nnc(Cn2cnc3ccccc32)o1)Nc1nc2ccccc2s1`
a: 3.69

q: Using known records, supply logP for `Cc1ccc2nc(NC(=O)CSc3nnc(Cn4cnc5ccccc54)o3)sc2c1`
a: 4.18

* * *

# Tested on: Bacillus cereus
# Test Name: Antibacterial activity against Bacillus cereus MTCC 430 by agar streak dilution method
# Type: functional
# log10 MIC per record follows
Quick note: numbers are log10 of MIC, with µg/mL as the unit.

Consider the worked cases shown below.
# Chem Smiles, log10 MIC
records = [
    ("O=C(CSc1nnc(Cn2cnc3ccccc32)o1)Nc1nc2ccccc2s1", 2.00),
    ("CC(=O)Nc1ccc2nc(NC(=O)CSc3nnc(Cn4cnc5ccccc54)o3)sc2c1", 2.00),
    ("O=C(CSc1nnc(Cn2cnc3ccccc32)o1)Nc1ccc(Br)cc1", 1.10),
    ("O=C(CSc1nnc(Cn2cnc3ccccc32)o1)Nc1ccc(Cl)cc1", 1.70),
    ("O=C(CSc1nnc(Cn2cnc3ccccc32)o1)Nc1ccc(F)cc1", 1.70),
    ("O=C(CSc1nnc(Cn2cnc3ccccc32)o1)Nc1nc2ccc([N+](=O)[O-])cc2s1", 1.10),
]

q: Please report the measured log10 MIC for `O=C(CSc1nnc(Cn2cnc3ccccc32)o1)Nc1ccccc1`
a: 2.00

* * *

# System: Salmonella typhi
# Test Name: Antibacterial activity against Salmonella typhi MTCC 733 at 100 ug/disc by paper disc diffusion technique
# Format: functional, Salmonella enterica subsp. enterica serovar Typhi
# Experimental Context: Salmonella enterica, read-out: IZ
Rule: zone of inhibition at 100 µg/disc of 20 mm or more gives Fulfilled; anything lower gives Not fulfilled.

# Chem Smiles, Group
rows = [
    ("O=C(CSc1nnc(Cn2cnc3ccccc32)o1)Nc1ccccc1", "Not fulfilled"),
    ("O=C(CSc1nnc(Cn2cnc3ccccc32)o1)Nc1ccc([N+](=O)[O-])cc1", "Not fulfilled"),
    ("O=C(CSc1nnc(Cn2cnc3ccccc32)o1)Nc1ccc(Br)cc1", "Fulfilled"),
    ("O=C(O)c1cn(C2CC2)c2cc(N3CCNCC3)c(F)cc2c1=O", "Fulfilled"),
    ("CCOc1ccc2nc(NC(=O)CSc3nnc(Cn4cnc5ccccc54)o3)sc2c1", "Not fulfilled"),
    ("Cc1ccc2nc(NC(=O)CSc3nnc(Cn4cnc5ccccc54)o3)sc2c1", "Not fulfilled"),
    ("O=C(CSc1nnc(Cn2cnc3ccccc32)o1)Nc1ccc(F)cc1", "Fulfilled"),
    ("O=C(CSc1nnc(Cn2cnc3ccccc32)o1)Nc1nc2ccc([N+](=O)[O-])cc2s1", "Not fulfilled"),
    ("Cc1ccc(NC(=O)CSc2nnc(Cn3cnc4ccccc43)o2)cc1", "Not fulfilled"),
    ("CC(=O)Nc1ccc2nc(NC(=O)CSc3nnc(Cn4cnc5ccccc54)o3)sc2c1", "Not fulfilled"),
]

q: Reported zone of inhibition at 100 µg/disc at or above 20 mm? `CCOc1ccc(NC(=O)CSc2nnc(Cn3cnc4ccccc43)o2)cc1`
a: Fulfilled

q: Decide: is the reported value of zone of inhibition at 100 µg/disc for `O=C(CSc1nnc(Cn2cnc3ccccc32)o1)Nc1nc2ccccc2s1` equal to or greater than 20 mm?
a: Not fulfilled

q: Could you please find out whether `CC(=O)Nc1ccc(NC(=O)CSc2nnc(Cn3cnc4ccccc43)o2)cc1` has zone of inhibition at 100 µg/disc that meets 20 mm or exceeds it?
a: Not fulfilled

q: State whether the measured zone of inhibition at 100 µg/disc reaches 20 mm, counting equality as reaching it, for `O=C(CSc1nnc(Cn2cnc3ccccc32)o1)Nc1ccc(I)cc1`
a: Not fulfilled

q: Quick check, zone of inhibition at 100 µg/disc >= 20 mm? `O=C(CSc1nnc(Cn2cnc3ccccc32)o1)Nc1nc2ccc(Br)cc2s1`
a: Fulfilled

q: zone of inhibition at 100 µg/disc >= 20 mm for `N#Cc1ccc2nc(NC(=O)CSc3nnc(Cn4cnc5ccccc54)o3)sc2c1` ?
a: Not fulfilled

q: Quick check, zone of inhibition at 100 µg/disc >= 20 mm? `O=C(CSc1nnc(Cn2cnc3ccccc32)o1)Nc1nc2ccc(F)cc2s1`
a: Fulfilled

q: Reported zone of inhibition at 100 µg/disc at or above 20 mm? `O=C(CSc1nnc(Cn2cnc3ccccc32)o1)Nc1nc2ccc(I)cc2s1`
a: Not fulfilled

q: Decide: zone of inhibition at 100 µg/disc of `O=C(CSc1nnc(Cn2cnc3ccccc32)o1)Nc1ccc(Cl)cc1` >= 20 mm?
a: Not fulfilled

q: Is it the case that `O=C(CSc1nnc(Cn2cnc3ccccc32)o1)Nc1nc2ccc(Cl)cc2s1` has zone of inhibition at 100 µg/disc reaching or exceeding 20 mm?
a: Fulfilled
